The values you see were collected from PubChem BioAssay AID1745844.

- Test system: rodent lifetime carcinogenesis bioassay, tumor incidence TD50
- EXPERIMENT NOTES: carcinogenic potency in animals, long-term in vivo studies, CPDB compilation (AID 1745844)
- REPORTED CONDITIONS: rat; strain Fischer 344; females; in feed; site: any site (literature study); lesion: several types; types named in the paper; dosed 77 weeks; study length 106 weeks
OUTCOME MEASURE: TD50 (mg/kg/day)
The response must be a number in mg/kg/day with no trailing unit.

Give the measured TD50 for CNC(=S)N(C)C
17.4

* * *

- Tested on: rodent lifetime carcinogenesis bioassay, tumor incidence TD50
- EXPERIMENT NOTES: carcinogenic potency in animals, long-term in vivo studies, CPDB compilation (AID 1745844)
- REPORTED CONDITIONS: mouse; strain BALB/cStCrlfC3Hf/Nctr; males; in drinking water; site: Harderian gland; lesion: adenoma; dosed 78 weeks; study length 78 weeks
Calls of active or inactive are those of the source. The rule behind the calls is not given here.
OUTCOME MEASURE: TD50

Report TD50, nothing else, for this compound: COc1cc(-c2ccc(N)c(OC)c2)ccc1N
3560 mg/kg/day (inactive)
